- study-system: EHMT1 (Homo sapiens, UniProt Q9H9B1)
- Sequence (Q9H9B1 whole entry, species assumed): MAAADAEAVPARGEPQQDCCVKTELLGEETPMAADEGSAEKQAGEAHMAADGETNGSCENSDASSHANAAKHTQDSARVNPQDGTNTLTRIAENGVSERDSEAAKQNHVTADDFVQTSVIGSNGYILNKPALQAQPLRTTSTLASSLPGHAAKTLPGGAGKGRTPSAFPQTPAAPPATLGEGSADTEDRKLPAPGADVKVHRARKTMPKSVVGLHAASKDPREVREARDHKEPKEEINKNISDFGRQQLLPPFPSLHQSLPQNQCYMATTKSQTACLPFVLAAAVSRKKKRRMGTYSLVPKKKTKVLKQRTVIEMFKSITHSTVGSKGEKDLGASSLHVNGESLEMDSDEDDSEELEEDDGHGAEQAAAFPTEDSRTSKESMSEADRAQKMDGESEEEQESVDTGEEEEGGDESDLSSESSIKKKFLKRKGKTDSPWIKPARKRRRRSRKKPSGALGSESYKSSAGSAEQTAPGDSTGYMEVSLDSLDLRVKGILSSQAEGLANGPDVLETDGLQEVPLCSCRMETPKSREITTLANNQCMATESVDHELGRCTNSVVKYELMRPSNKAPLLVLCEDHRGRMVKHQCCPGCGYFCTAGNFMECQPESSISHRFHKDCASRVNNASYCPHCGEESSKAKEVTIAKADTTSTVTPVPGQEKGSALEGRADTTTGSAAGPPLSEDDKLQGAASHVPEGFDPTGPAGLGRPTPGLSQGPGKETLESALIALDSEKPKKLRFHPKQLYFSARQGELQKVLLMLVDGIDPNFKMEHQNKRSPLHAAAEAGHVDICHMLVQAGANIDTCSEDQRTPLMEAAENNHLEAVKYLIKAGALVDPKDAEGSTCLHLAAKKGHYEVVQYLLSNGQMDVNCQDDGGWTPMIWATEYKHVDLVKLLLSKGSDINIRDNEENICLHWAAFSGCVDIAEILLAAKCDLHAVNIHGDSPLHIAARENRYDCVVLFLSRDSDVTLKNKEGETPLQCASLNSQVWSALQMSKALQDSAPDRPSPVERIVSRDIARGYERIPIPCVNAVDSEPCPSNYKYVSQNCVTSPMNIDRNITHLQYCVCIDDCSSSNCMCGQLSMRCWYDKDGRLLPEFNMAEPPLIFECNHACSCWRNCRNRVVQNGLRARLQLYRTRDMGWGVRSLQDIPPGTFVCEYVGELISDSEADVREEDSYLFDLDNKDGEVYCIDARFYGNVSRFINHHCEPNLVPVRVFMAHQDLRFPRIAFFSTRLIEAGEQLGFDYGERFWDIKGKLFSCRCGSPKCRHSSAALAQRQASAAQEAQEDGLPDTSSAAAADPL
- assay-overview: EHMT1 enzyme assay on peptide substrate (EHMT1 PEP)
- Assay type: biochemical
- measurement-conditions: Table VII; read-out: EHMT1 PEP IC50
measured-metric: IC50

Entry CNc1ccnc(Nc2ccc(OC)c(OCC(C)CN3CCC3)c2)n1 (stereo not shown) , system EHMT1 (Homo sapiens, UniProt Q9H9B1): what IC50 was measured? < 100 nM

Entry CNc1ccnc(Nc2ccc(OC)c(OC[C@H]3CNCCO3)c2)n1 , system EHMT1 (Homo sapiens, UniProt Q9H9B1): what IC50 was measured? 1000 to 10000 nM

---

- study-system: EHMT2 (Homo sapiens, UniProt Q96KQ7)
- Construct: host or cells: MDA-MB-231
- assay-overview: MDA-MB-231 H3K9me2 in-cell Western assay (EHMT2 ICW)
- Format: cell-based
- measurement-conditions: Table III; MDA-MB-231 H3K9me2 in-cell Western; read-out: EHMT2 ICW (IC50 μM)
measured-metric: IC50

Worked examples, 5 compounds total:
1. CNc1ccnc(Nc2ccc3cn(CCCN(C)C)nc3c2)n1 [Compound 405] : > 10 µM
2. COc1ccc(Nc2ccc3nn(C)cc3c2)cc1OCCCN1CCCC1 [Compound 345] : > 10 µM
3. CCOc1ccc(Nc2nc(C)cc(NC)n2)cc1OCCCN1CCCC1 [Compound 432] : > 10 µM
4. COc1ccc(Nc2nccc3[nH]ccc23)cc1OCCCN1CCCC1 [Compound 266] : 1 to 10 µM
5. COc1ccc(Nc2ccc3ncn(C)c3n2)cc1OCCCN1CCCC1 [Compound 342] : > 10 µM

Entry CCc1nc(Nc2ccc(OC)c(OCCCN3CCCC3)c2)nc(NC)c1F [Compound 319] has what IC50? 1 to 10 µM

Entry CNc1cc(C)nc(Nc2ccc(OC)c(OCCCOC)c2)n1 [Compound 312] has what IC50? > 10 µM

Entry CNc1ccnc(Nc2ccc(OC)c(OCCCN3CCC3C)c2)n1 (stereo not drawn) [Compound 429] has what IC50? 1 to 10 µM

Entry COc1cnc(Nc2ccnc3[nH]ccc23)cc1OCCCN1CCCC1 [Compound 335] has what IC50? 1 to 10 µM

---

- study-system: EHMT2 (Homo sapiens, UniProt Q96KQ7)
- Construct: host or cells: MDA-MB-231
- assay-overview: MDA-MB-231 H3K9me2 in-cell Western assay (EHMT2 ICW)
- Format: cell-based
- measurement-conditions: Table VII; read-out: EHMT2 ICW IC50
measured-metric: IC50

1. CNc1cc(C)nc(Nc2ccc(OC)c(CNCCN3CC[C@@H](F)C3)c2)n1 [Compound 1094] : 0.1 to 1 µM

Entry CNc1cc(C)nc(Nc2cnc(OC)c(OC[C@H](O)CN3CCC3)c2)n1 [Compound 1089] has what IC50? 0.1 to 1 µM

Entry CCN1CCO[C@@H](COc2cc(Nc3nccc(NC)n3)ccc2OC)C1 [Compound 1068] has what IC50? > 10 µM

---

- study-system: EHMT2 (Homo sapiens, UniProt Q96KQ7)
- Construct: host or cells: MDA-MB-231
- assay-overview: MDA-MB-231 H3K9me2 in-cell Western assay (EHMT2 ICW)
- Type: cell-based
- measurement-conditions: H3K9me2 in-cell Western, MDA-MB-231 cells; read-out: EHMT2 ICW (IC50 μM)
Form field: IC50 (one value per entry).

Worked examples, 4 compounds total:
1. CNc1cc(Nc2cc(OCCCN3CC4CC4C3)c(OC)cn2)nc(C)c1F (stereo not drawn) [Compound 509] : 0.1 to 1 µM
2. CNc1cc(C)nc(Nc2ccc(OC)c(OCC3CCN(C4CC4)C3)c2)n1 (stereo not drawn) [Compound 457] : < 0.1 µM
3. COc1cnc(Nc2nccc3[nH]ccc23)cc1OCCCN1CC2CC2C1 (stereo not drawn) [Compound 507] : 0.1 to 1 µM
4. CNc1cc(C)nc(Nc2cnc(OC)c(OC[C@H]3CCN(C4CC4)C3)c2)n1 [Compound 558] : 0.1 to 1 µM

In the following, a different compound is considered.
Entry C/C=C/C(=O)Nc1ccc(OC)c(OCCCN2CCCC2)c1 [Compound 598] has what IC50? > 10 µM

---

- study-system: EHMT2 (Homo sapiens)
- Construct: host or cells: MDA-MB-231
- assay-overview: MDA-MB-231 H3K9me2 in-cell Western assay (EHMT2 ICW)
- Format: cell-based
- measurement-conditions: Table VII; read-out: EHMT2 ICW IC50
Form field: IC50 (one value per entry).

1) CCN1CCC(O)(COc2cc(Nc3nccc(NC)n3)ccc2OC)C1 (stereo not shown) : > 10 µM
2) CNc1cc(C2CCOCC2)c2cc(OC)c(C#CCN3CCCC3)cc2n1 : 0.1 to 1 µM
3) CNc1ccnc(Nc2cnc(OC)c(OCCCN3CCCC3)c2)n1 : 0.1 to 1 µM
4) CNc1cc(C)nc(Nc2ccc(OC)c(CNCCN3CCC3)c2)n1 : < 0.1 µM
5) CNc1cc(C)nc(Nc2ccc(OC)c(COCCN(C)C)c2)n1 : 1 to 10 µM

Entry CNCC(C)NCc1cc(Nc2nc(C)cc(NC)n2)ccc1OC (stereo not shown) has what IC50? 0.1 to 1 µM

Entry CNc1ccnc(Nc2ccc(OC)c(OCC3(O)CCN(C)C3)c2)n1 (stereo not shown) has what IC50? > 10 µM

Entry CNCCCOc1cc(Nc2nccc(NC)n2)cnc1OC has what IC50? 1 to 10 µM

Entry CNc1cc(C2CCOCC2)c2cc(OC)c(OCCCN3CC(O)C3)cc2n1 has what IC50? 0.1 to 1 µM

Entry CNCC(C)COc1cc(Nc2nccc(NC)n2)ccc1OC (stereo not shown) has what IC50? 1 to 10 µM

Entry CNc1cc(C)nc(Nc2ccc(OC)c(OC[C@H](O)CN3CC(C)C3)c2)n1 [Compound 1099] has what IC50? 0.1 to 1 µM

Entry CNc1ccnc(Nc2ccc(OC)c(OC[C@H]3CNCCO3)c2)n1 has what IC50? > 10 µM

Entry CNc1cc(C2CCOCC2)c2cc(OC)c(OC[C@H](O)CN3CCC3)cc2n1 has what IC50? 0.1 to 1 µM

Entry CNc1ccnc(Nc2ccc(OC)c(OC[C@H](O)CN3CCC3)c2)n1 [Compound 1047] has what IC50? 0.1 to 1 µM

Entry CNCCNCc1cc(Nc2nc(C)cc(NC)n2)ccc1OC has what IC50? 1 to 10 µM

Entry CNc1cc(C2CCOCC2)c2cc(OC)c(OC[C@H](O)CN3CCCC3)cc2n1 has what IC50? 0.1 to 1 µM

Entry CNCC(C)(O)COc1cc(Nc2nccc(OC)n2)ccc1OC (stereo not shown) has what IC50? > 10 µM

Entry CNCCNCc1cc(Nc2nccc(NC)n2)cnc1OC has what IC50? 1 to 10 µM

Entry CNc1ccnc(Nc2ccc(OC)c(ONC[C@@H]3CCCN3)c2)n1 has what IC50? > 10 µM

---

- study-system: EHMT2 (Homo sapiens)
- Construct: host or cells: MDA-MB-231
- Sequence (Q96KQ7 1-1210): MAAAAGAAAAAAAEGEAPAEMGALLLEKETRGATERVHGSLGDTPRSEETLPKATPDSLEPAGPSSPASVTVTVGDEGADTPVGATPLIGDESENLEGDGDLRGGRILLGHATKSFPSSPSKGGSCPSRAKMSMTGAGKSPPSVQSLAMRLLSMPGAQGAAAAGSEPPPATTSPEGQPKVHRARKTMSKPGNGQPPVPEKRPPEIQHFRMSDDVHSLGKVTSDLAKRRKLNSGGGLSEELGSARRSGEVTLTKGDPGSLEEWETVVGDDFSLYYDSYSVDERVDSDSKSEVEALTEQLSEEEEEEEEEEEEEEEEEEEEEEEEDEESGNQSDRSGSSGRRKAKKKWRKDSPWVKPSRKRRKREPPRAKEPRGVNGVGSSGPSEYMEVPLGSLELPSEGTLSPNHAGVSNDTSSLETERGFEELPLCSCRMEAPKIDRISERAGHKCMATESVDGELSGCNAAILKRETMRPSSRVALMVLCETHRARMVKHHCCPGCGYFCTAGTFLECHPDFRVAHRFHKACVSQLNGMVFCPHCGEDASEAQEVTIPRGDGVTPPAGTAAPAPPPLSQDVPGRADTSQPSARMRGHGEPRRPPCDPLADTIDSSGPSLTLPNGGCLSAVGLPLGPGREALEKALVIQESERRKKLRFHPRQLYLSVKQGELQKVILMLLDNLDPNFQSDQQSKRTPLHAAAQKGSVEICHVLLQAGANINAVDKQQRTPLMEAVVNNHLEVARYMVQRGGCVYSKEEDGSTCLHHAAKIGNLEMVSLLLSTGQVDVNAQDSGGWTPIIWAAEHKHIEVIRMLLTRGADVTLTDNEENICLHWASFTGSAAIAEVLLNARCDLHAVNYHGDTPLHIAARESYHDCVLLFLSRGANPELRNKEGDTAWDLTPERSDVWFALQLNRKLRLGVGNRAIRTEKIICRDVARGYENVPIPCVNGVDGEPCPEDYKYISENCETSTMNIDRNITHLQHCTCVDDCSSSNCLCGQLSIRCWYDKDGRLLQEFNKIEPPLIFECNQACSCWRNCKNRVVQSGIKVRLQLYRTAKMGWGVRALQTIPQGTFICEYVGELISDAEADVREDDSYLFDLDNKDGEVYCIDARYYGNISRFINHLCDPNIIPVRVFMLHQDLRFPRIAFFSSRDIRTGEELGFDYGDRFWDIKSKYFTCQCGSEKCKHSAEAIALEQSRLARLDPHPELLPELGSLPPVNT
- assay-overview: MDA-MB-231 H3K9me2 in-cell Western assay (EHMT2 ICW)
- Assay type: cell-based
- measurement-conditions: Table II; MDA-MB-231 H3K9me2 in-cell Western; read-out: EHMT2 ICW (IC50 μM)
measured-metric: IC50

Worked examples, 2 compounds total:
1. COc1ccc(Nc2cccc3ncnn23)cc1OCCCN1CCCC1 [Compound 220] : > 10 µM
2. COc1ccc(Nc2nccc(CNC(C)=O)n2)cc1OCCCN1CCCC1 [Compound 144] : > 10 µM

Entry COc1ccc(Nc2nccc(NCC3CCN(C(C)=O)CC3)n2)cc1OCC(C)CN1CCCC1 (stereo not drawn) [Compound 183] , system EHMT2 (Homo sapiens): what IC50 was measured? 1 to 10 µM

Provenance of the data: patent US20210198277A1
